The reported numbers originate from the supplement of paper PMC10065799.

- tested target: c-Src SH2;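 note: peptide library displayed on the E. coli surface as eCPX fusions, selected cells deep-sequenced, score is each peptide's frequency after selection divided by its frequency in the input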
- experiment: SH2 binding enrichment of the phosphorylated peptide, bacterial display (enrichment ratio); higher = better substrate or ligand; peptides without Tyr show the background
observation type: SH2 binding enrichment

IDFARYWHGDD [MMP11_Y162]    0.674
EFFENYIEELK [PARP4_Y218_F215Y_YF]    0.502
SVETPYVSVTF [NDRG2_Y47_G48V]    0.485
EEHIPCTHMNG [INSR_Y1361_Y1361C]    0.649
GREAEYSEKHG [EPHB4_Y574_D576E]    0.442

(a) RLLVVYPWTQG [HBG2_Y36_R41G]
(b) HSKGIYFVQLE [MGAT4B_Y262_Q257H_YF]
Select one. Lower SH2 binding enrichment: a or b Please indicate the selected item by its label. b
(b: 1.08, a: 1.66)

(a) EIASHYRHLLR [ZBTB46_Y14_T11A]
(b) QDGYSYLSRQM [LDLR_Y847_P848L]
Select one. Lower SH2 binding enrichment: a or b Please indicate the selected item by its label. a
(a: 0.522, b: 8.2)
